- Target Under Test: T1, monkey IL-25 expressed with a C-terminal myc-myc-hexahistidine tag (M. fascicularis (cynomolgus monkey))
- T1 construct: also called monkey IL-25-MMH; MfIL-25-MMH
- T1 chain: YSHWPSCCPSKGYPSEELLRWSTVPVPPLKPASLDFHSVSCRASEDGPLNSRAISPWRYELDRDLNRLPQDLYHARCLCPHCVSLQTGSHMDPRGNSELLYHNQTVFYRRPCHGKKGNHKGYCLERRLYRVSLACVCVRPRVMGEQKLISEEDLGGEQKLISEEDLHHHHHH
- Test Method Notes: SPR Biacore, captured mAb, 25°C;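 also: Real-time surface plasmon resonance on a Biacore 4000, with IL-25-MMH binding to purified anti-IL-25 antibodies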
Observation Type: Kd (nM)
Give a bare numeral; the unit nM is implied.

INSERT INTO assay_data (binder, units_of_measure, endpoint_value) VALUES
  ('H4H10863P (antibody, human IgG4, V domains shown) VH: QVQLVQSGAEVKKPGASVKVSCKASGYTFSSYGISWVRQAPGQGLEWMGWISAYNDNTQYAQKFQGRVTMTTDTSTSTAYMELRSLRSDDTAVYYCARVPLQWFGESFDHWGQGTLVTVSS VL: DIQMTQSPSSLSASVGDRVTITCRASQDINNYLNWFQQKPGKAPKLLIFSTSSLQSGVPSRFSGSGSGTDFTLTISSLQSEDFATYYCQQTFITPLTFGGGTKVEIK', 'nM', 0.199);

Problem: Quick check: Kd of H4H10897P (antibody, human IgG4, V domains shown) VH: QVQLQESGPGLVKPSETLSLTCTVSGGSISDYYWSWIRQPPGKGLEWIGHIYYSGSTNHNPSLKSRVAISVDTSKNQFSLRLYSVTAADTAVYYCARDGYSSSSGFYYFGMDVWGQGTTVTVSS VL: DIQLTQSPSFLSASVGDRVTITCWASQDINSYLAWYQQKPGKAPKLLIFAASTLQGGVPSRFSGSGSGTEFTLTISSLQPEDFATYYCQHLSSFPPTFGQGTRLEIK ?
Result: 0.0749

Problem: Consider next the binder H4H10871P (antibody, human IgG4, V domains shown) VH: QVQLVQSGAEVMKPGASVKVSCKSSDFAFTTYGISWVRQAPGQGLEWMGWISAYNGNTNYEQRFQGRITMTTDTSTTTVYMELRSLRSDDTAVYYCARDPDYCSSNTCSDAFDLWGQGTMVTVSS VL: DIQMTQSPSSLSASVRDRVTITCRASQGITNYLAWYQQKPGKVPKVLIYAASTLQSGVPSRFSGSGSGTEFTLAISSLQPEDVATYFCQQYGSAPWTFGQGTKVEIK in the same way.
Result: 0.0965

Problem: Consider next the binder H4H10901P (antibody, human IgG4, V domains shown) VH: QLQLQESGPGLVRPSETLSLTCSVSSGSIRSSNYYWGWIRQPPGKGLEWIGNIYYSGNTFYNPSLKGRVTISVDTSKNQFSLKLSSVTATDTAVYYCARQGYSDYELNWFDPWGQGTLVTVSS VL: DIVMTQSPDSLVLSLGERATFNCKSSQSVLDSSNNKNYLAWYQQKPGQPPKLLIYWASTRESGVPDRFSGSGSGTDFSLTISSLQAEDVALYYCQQFYNSPWTFGQGTKVEIK in the same way.
Result: 0.0116
